# System: primary human fibroblasts derived from IPF patients (LL29 cells)
# assay.comment: Inhibition of the fibrotic process: αSMA staining in TGF-β1 treated LL29 fibroblasts
# Format: cell-based
# measurement.conditions: Homo sapiens, Fibroblast, 96 h, TGF-β1 20 ng/mL, 4 days, % αSMA positive cells
measured.quantity: EC50 (µM)
A number alone suffices; assume µM.

These solved cases illustrate the format of a correct answer.
molecule	recorded.value
Cn1cc(-c2cnc3[nH]nc(-c4cc5c(-c6cccs6)cccc5[nH]4)c3c2)cn1 [Compound 702]	0.874
CCCCC(=O)Nc1cncc(-c2cnc3[nH]nc(-c4cc5c(-c6ccccn6)cccc5[nH]4)c3c2)c1 [Compound 136]	2.67
O=C(Nc1cncc(-c2cnc3[nH]nc(-c4cc5c(-c6ccncc6)cccc5[nH]4)c3c2)c1)C1CCCCC1 [Compound 115]	4.98
O=C(Nc1cncc(-c2cnc3[nH]nc(-c4cc5c(-c6cccnc6)cccc5[nH]4)c3c2)c1)C1CCC1 [Compound 89]	0.147
c1ccc2[nH]c(-c3n[nH]c4ncc(-c5cncc(CN6CCCC6)c5)cc34)cc2c1 [Compound 240]	0.859

Short answer on primary human fibroblasts derived from IPF patients (LL29 cells) for CS(=O)(=O)NCc1cc(F)cc(-c2cccc3[nH]c(-c4n[nH]c5ncc(-c6cncc(N)c6)cc45)cc23)c1 [Compound 453] , EC50: 0.37

The origin of these recorded values is patent US20180214428A1.
